System: E. coli ATCC 25922
Protocol details: MIC determination
Format: cell-based
Conditions: Escherichia coli, ATCC25922

Molecule: CSC1O[C@H]([C@H](NC(=O)[C@H]2NC[C@@H]3CCCCO[C@@H]32)[C@H](C)Cl)C(O)[C@@H](O)[C@H]1O (some centres unmarked) [FSA-504062]
MIC: > 64 µg/mL

Molecule: CSC1O[C@H]([C@H](NC(=O)[C@H]2NC[C@@H]3CN(C(=N)N)CCO[C@H]32)[C@H](C)Cl)C(O)C(O)[C@H]1O (some centres unmarked) [FSA-504057]
MIC: > 64 µg/mL

Molecule: CSC1O[C@H]([C@H](NC(=O)[C@H]2NC[C@@H]3C=C(c4ccc(F)cc4)CCO[C@@H]23)[C@H](C)Cl)C(O)[C@@H](O)[C@H]1O (some centres unmarked) [FSA-507052]
MIC: > 32 µg/mL

Molecule: C=CCOC(=O)N1CCO[C@@H]2[C@H](CN[C@@H]2C(=O)N[C@H]([C@H](C)Cl)[C@H]2OC(SC)[C@H](O)[C@H](O)C2O)C1 (some centres unmarked) [FSA-503073]
MIC: > 64 µg/mL

Molecule: CSC1O[C@H]([C@H](NC(=O)[C@H]2NC[C@@H]3C=C(c4ccccc4)CCO[C@@H]23)[C@H](C)Cl)C(O)[C@@H](O)[C@H]1O (some centres unmarked) [FSA-507031]
MIC: > 32 µg/mL

Molecule: CCCN1CCO[C@@H]2[C@H](CN[C@@H]2C(=O)N[C@H]([C@H](C)Cl)[C@H]2OC(SC)[C@H](O)C(O)C2O)C1 (some centres unmarked) [FSA-503003]
MIC: > 64 µg/mL

Molecule: CSC1O[C@H]([C@H](NC(=O)[C@H]2NC[C@@H]3C=C(C#Cc4ccccc4)CCO[C@@H]23)[C@H](C)Cl)C(O)[C@@H](O)[C@H]1O (some centres unmarked) [FSA-510002]
MIC: > 64 µg/mL

Molecule: CSC1O[C@H]([C@H](NC(=O)[C@H]2NC[C@@H]3CN(Cc4ccnc(N)c4)CCO[C@H]32)[C@H](C)Cl)C(O)C(O)[C@H]1O (some centres unmarked) [FSA-504849]
MIC: > 64 µg/mL

Molecule: CSC1O[C@H]([C@H](NC(=O)[C@H]2NC[C@@H]3CC(N)CCO[C@H]32)[C@H](C)Cl)C(O)[C@@H](O)[C@H]1O (some centres unmarked) [FSA-510012]
MIC: > 64 µg/mL

Molecule: CNC1CCO[C@@H]2[C@H](CN[C@@H]2C(=O)N[C@H]([C@H](C)Cl)[C@H]2OC(SC)[C@H](O)[C@H](O)C2O)C1 (some centres unmarked) [FSA-510065]
MIC: > 64 µg/mL

Molecule: CSC1O[C@H]([C@H](NC(=O)[C@H]2NC[C@@H]3CN(Cc4ccccc4)CCO[C@H]32)[C@H](C)Cl)C(O)[C@@H](O)[C@H]1O (some centres unmarked) [FSA-502002]
MIC: > 64 µg/mL

Molecule: CSC1O[C@H]([C@H](NC(=O)[C@H]2NC[C@@H]3CC=CCO[C@H]32)[C@H](C)Cl)C(O)[C@@H](O)[C@H]1O (some centres unmarked) [FSA-24035]
MIC: > 64 µg/mL

Molecule: Cc1ccc(S(=O)(=O)OCC2O[C@H]([C@H](NC(=O)[C@H]3NC[C@@H]4CC=CCO[C@H]43)[C@@H](C)O)C(O)[C@@H](O)[C@H]2O)cc1 (some centres unmarked) [FSA-211030]
MIC: > 64 µg/mL

Molecule: CSC1O[C@H]([C@H](NC(=O)[C@H]2NC[C@@H]3CC(NCc4ccc(F)cc4)CCO[C@H]32)[C@H](C)Cl)C(O)[C@@H](O)[C@H]1O (some centres unmarked) [FSA-510074]
MIC: > 64 µg/mL

Molecule: CSC1O[C@H]([C@H](NC(=O)[C@H]2NC[C@@H]3CN(C)CCO[C@H]32)[C@H](C)Cl)C(O)C(O)[C@H]1O (some centres unmarked) [FSA-503002]
MIC: > 64 µg/mL

Molecule: CSC1O[C@H]([C@H](NC(=O)[C@H]2NC[C@@H]3C[C@@H](C4CCNCC4)CCO[C@H]32)[C@H](C)Cl)C(O)[C@@H](O)[C@H]1O (some centres unmarked) [FSA-512011]
MIC: > 256 µg/mL

Molecule: CSC1O[C@H]([C@H](NC(=O)[C@H]2NC[C@@H]3CC(c4ccccc4)=CCO[C@H]32)[C@H](C)Cl)C(O)[C@@H](O)[C@H]1O (some centres unmarked) [FSA-507056]
MIC: > 32 µg/mL

Molecule: CSC1O[C@H]([C@H](NC(=O)[C@H]2NC[C@H]3CC=CCO[C@H]32)[C@H](C)Cl)C(O)[C@@H](O)[C@H]1O (some centres unmarked) [FSA-507051]
MIC: 32 µg/mL

Molecule: CSC1O[C@H]([C@H](NC(=O)[C@H]2NC[C@@H]3C[C@@H](O)[C@@H](O)CO[C@H]32)[C@H](C)Cl)C(O)[C@@H](O)[C@H]1O (some centres unmarked) [FSA-501076]
MIC: > 64 µg/mL

Molecule: CSC1O[C@H]([C@H](NC(=O)[C@H]2NC[C@@H]3CC(c4cccc5cnccc45)=CCO[C@H]32)[C@H](C)Cl)C(O)[C@@H](O)[C@H]1O (some centres unmarked) [FSA-510006]
MIC: > 64 µg/mL

Molecule: CSC1O[C@H]([C@H](NC(=O)[C@@H]2[C@@H]3OCC=CC[C@H]3CN2C)[C@H](C)Sc2ccc(-c3cncnc3)cc2)C(O)[C@@H](O)[C@H]1O (some centres unmarked) [FSA-212034]
MIC: > 64 µg/mL

Molecule: CSC1O[C@H]([C@H](NC(=O)[C@H]2NC[C@@H]3CC(c4ccc(F)cc4)=CCO[C@H]32)[C@H](C)Cl)C(O)[C@@H](O)[C@H]1O (some centres unmarked) [FSA-507057]
MIC: > 64 µg/mL

Molecule: C=CC1=CCO[C@@H]2[C@H](CN[C@@H]2C(=O)N[C@H]([C@H](C)Cl)[C@H]2OC(SC)[C@H](O)[C@H](O)C2O)C1 (some centres unmarked) [FSA-507041]
MIC: > 32 µg/mL

Molecule: C[C@@H](O)[C@@H](NC(=O)[C@H]1NC[C@@H]2CC=CCO[C@H]21)[C@H]1OC(CN=[N+]=[N-])[C@H](O)[C@H](O)C1O (some centres unmarked) [FSA-211064]
MIC: > 64 µg/mL

Molecule: CSC1O[C@H]([C@H](NC(=O)[C@H]2NC[C@@H]3CNCCO[C@H]32)[C@H](C)Cl)C(O)C(O)[C@H]1O (some centres unmarked) [FSA-503001]
MIC: > 64 µg/mL

Molecule: CSC1O[C@H]([C@H](NC(=O)[C@H]2NC[C@@H]3C[C@@H](C4CCN(C)CC4)CCO[C@H]32)[C@H](C)Cl)C(O)[C@@H](O)[C@H]1O (some centres unmarked) [FSA-512012]
MIC: > 256 µg/mL

====

Tested on: H. influenzae ATCC 49247
Protocol details: MIC determination
Type: cell-based
Conditions: Haemophilus influenzae, ATCC49247; H. influenzae ATCC 49247; read-out: MIC
Catalogue of MIC readings, one per entry.
Recorded endpoint: MIC (µg/mL)

Molecule: CSC1O[C@H]([C@H](NC(=O)[C@H]2NC[C@@H]3CCCO[C@H]32)[C@H](C)Cl)C(O)[C@@H](O)[C@H]1O (stereo partly drawn)
Study target: H. influenzae ATCC 49247
Val: 32
--
Molecule: CSC1O[C@H]([C@H](NC(=O)[C@H]2NC[C@@H]3CC=CCO[C@H]32)[C@H](C)Cl)C(O)[C@@H](O)[C@H]1O (stereo partly drawn)
Study target: H. influenzae ATCC 49247
Val: 1
--
Molecule: CSC1O[C@H]([C@H](NC(=O)[C@H]2NC[C@@H]3C[C@@H](c4ccc(F)cc4F)CCO[C@H]32)[C@H](C)Cl)C(O)[C@@H](O)[C@H]1O (stereo partly drawn)
Study target: H. influenzae ATCC 49247
Val: 16
--
Molecule: CSC1O[C@H]([C@H](NC(=O)[C@H]2NC[C@@H]3C[C@@H](CCc4ccccc4)CCO[C@H]32)[C@H](C)Cl)C(O)[C@@H](O)[C@H]1O (stereo partly drawn)
Study target: H. influenzae ATCC 49247
Val: 1
--
Molecule: CSC1O[C@H]([C@H](NC(=O)[C@H]2NC[C@@H]3CC(F)(F)CCO[C@H]32)[C@H](C)Cl)C(O)[C@@H](O)[C@H]1O (stereo partly drawn)
Study target: H. influenzae ATCC 49247
Val: 4
--
Molecule: CSC1O[C@H]([C@H](NC(=O)[C@H]2NC[C@@H]3CC(c4ccc(-c5ccccc5)cc4)=CCO[C@H]32)[C@H](C)Cl)C(O)[C@@H](O)[C@H]1O (stereo partly drawn)
Study target: H. influenzae ATCC 49247
Val: 16
